So I've got a bunch of compounds here, and I need their melting point values.

Example results:
CCCOC(=O)Nc1nc2ccccc2c2c1nc(COCC)n2CC(C)(C)NS(C)(=O)=O; 177 to 179 °C
CCOCc1nc2c(NC(=O)c3ccccc3)nc3ccccc3c2n1CC(C)(C)NS(C)(=O)=O; 80 to 83 °C

For every item below, please supply its melting point.
1. CCOCc1nc2c(NC(=O)OCC)nc3ccccc3c2n1CC(C)(C)NS(C)(=O)=O
2. CCOCc1nc2c(NC(C)=O)nc3ccccc3c2n1CC(C)(C)NS(C)(=O)=O
3. CCOCc1nc2c(NC(=O)C(C)C)nc3ccccc3c2n1CC(C)(C)NS(C)(=O)=O
4. CCCCOC(=O)Nc1nc2ccccc2c2c1nc(COCC)n2CC(C)(C)NS(C)(=O)=O

Response given:
["163 to 165 °C", "75 to 76 °C", "67 to 70 °C", "125 to 127 °C"]
